Below are pIC50 values measured for KIF18A (Homo sapiens, UniProt Q8NI77).
pIC50: −log10 of the molar value.

Req: Form field - read-out: pIC50; system: KIF18A (Homo sapiens, UniProt Q8NI77); submitted item: O=C(Nc1ccc(=O)n(CCCC(F)(F)F)n1)c1ccc(NS(=O)(=O)CCO)cc1N1CCC2(CC1)CC2
Sequence (Q8NI77 whole entry): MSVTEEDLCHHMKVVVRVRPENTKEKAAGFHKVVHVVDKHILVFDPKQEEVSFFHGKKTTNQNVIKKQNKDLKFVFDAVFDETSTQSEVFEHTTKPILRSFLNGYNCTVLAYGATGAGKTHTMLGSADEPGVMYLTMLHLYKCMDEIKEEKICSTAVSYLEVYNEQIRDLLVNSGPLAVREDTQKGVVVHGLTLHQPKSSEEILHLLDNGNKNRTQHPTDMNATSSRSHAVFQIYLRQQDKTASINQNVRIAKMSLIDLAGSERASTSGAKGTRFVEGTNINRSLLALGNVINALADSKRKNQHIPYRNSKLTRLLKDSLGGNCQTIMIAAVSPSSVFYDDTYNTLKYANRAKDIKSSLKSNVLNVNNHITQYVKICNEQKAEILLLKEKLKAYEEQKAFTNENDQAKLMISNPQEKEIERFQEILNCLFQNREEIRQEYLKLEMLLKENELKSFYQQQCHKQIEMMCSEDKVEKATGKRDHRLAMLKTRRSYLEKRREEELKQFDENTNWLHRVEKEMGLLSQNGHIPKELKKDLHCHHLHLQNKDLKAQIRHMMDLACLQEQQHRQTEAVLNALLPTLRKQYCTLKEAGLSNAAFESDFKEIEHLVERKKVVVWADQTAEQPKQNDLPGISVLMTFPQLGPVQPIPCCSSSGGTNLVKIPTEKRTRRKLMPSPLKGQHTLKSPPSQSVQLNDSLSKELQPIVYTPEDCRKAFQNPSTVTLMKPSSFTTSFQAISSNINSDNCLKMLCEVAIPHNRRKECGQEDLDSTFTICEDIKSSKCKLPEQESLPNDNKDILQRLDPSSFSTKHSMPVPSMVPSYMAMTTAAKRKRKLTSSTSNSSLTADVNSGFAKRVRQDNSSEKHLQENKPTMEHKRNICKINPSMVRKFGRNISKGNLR
Resp: > 7.30

Req: Form field - read-out: pIC50; system: KIF18A (Homo sapiens, UniProt Q8NI77); submitted item: O=C(Nc1ccnc2c1OCC1CC(F)(F)CCN21)c1ccc(NS(=O)(=O)CCO)cc1N1CCC2(CC1)CC2 (centres unmarked)
Resp: > 7.30

Req: Form field - read-out: pIC50; system: KIF18A (Homo sapiens, UniProt Q8NI77); submitted item: CN1CCCOc2c(NC(=O)c3ccc(NS(=O)(=O)CCO)cc3N3CCC4(CC3)CC4)ccnc21
Resp: > 7.30

Req: Form field - read-out: pIC50; system: KIF18A (Homo sapiens, UniProt Q8NI77); submitted item: O=C(Nc1cccn(CCCC(F)(F)F)c1=O)c1ccc(NS(=O)(=O)CCO)cc1N1CCC2(CC1)CC2
Resp: 6.30 to 7.30

Req: Form field - read-out: pIC50; system: KIF18A (Homo sapiens, UniProt Q8NI77); submitted item: COCCS(=O)(=O)N1CCc2cc(C(=O)Nc3cccc(N4CCOCC4)n3)c(N3CCC4(CC3)CC4)cc21
Resp: 4.82 to 6.30

Req: Form field - read-out: pIC50; system: KIF18A (Homo sapiens, UniProt Q8NI77); submitted item: O=C(Nc1ccc(=O)n(C2CCOCC2)c1)c1ccc(NS(=O)(=O)CCO)cc1N1CCC2(CC1)CC2
Resp: 4.82 to 6.30

Req: Form field - read-out: pIC50; system: KIF18A (Homo sapiens, UniProt Q8NI77); submitted item: Cc1cc(NC(=O)c2cc3c(cc2N2CCC4(CC2)CC4)N(C(=O)CCO)CC3)nc(N2CCC(F)(F)CC2)n1
Resp: 4.82 to 6.30

Req: Form field - read-out: pIC50; system: KIF18A (Homo sapiens, UniProt Q8NI77); submitted item: CC(C)n1nc(NC(=O)c2cc3c(cc2N2CCC4(CC2)CC4)N(S(=O)(=O)CCO)CC3)ccc1=O
Resp: > 7.30

Provenance of the data: patent US20260209248A1
